Target: T1, huNotch2-EGF6-10 (human, UniProt Q04721 219-418)
T1 construct: also called human Notch2 EGF6-10
T1 sequence: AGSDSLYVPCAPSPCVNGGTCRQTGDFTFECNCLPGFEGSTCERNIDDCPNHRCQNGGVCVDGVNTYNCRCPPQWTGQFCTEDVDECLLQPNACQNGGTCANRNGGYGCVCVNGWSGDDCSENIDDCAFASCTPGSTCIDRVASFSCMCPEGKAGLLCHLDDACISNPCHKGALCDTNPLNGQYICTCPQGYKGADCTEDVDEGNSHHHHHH
Experiment: SPR BIAcore T200, antibody captured on protein A, 37 C
parameter-measured: kon (M⁻¹ s⁻¹)
Quick note: give the figure in M⁻¹ s⁻¹, leave out the unit.

Here's what some known entries look like.
# binder, unit-abbreviation, kon
rows = [
    ("hu1B2.v101 (antibody, V domains shown, Human IgG1 backbone) VH: EVQLVESGGGLVQPGGSLKLSCAVSGFTFSDFYMEWVRQASGKGLEWVAAQRNKANDFSIVYSASVKDRFTISRDDSKSTLYLQMNSLKTEDTAVYYCSRDGGRWGLDAWGQGTLVTVSS VL: DIQMTQSPSSVSASVGDRVTITCQTSEDIYSGLAWYQQKPGKSPKLLIYGASRLQDGVPSRFSGSGSGTDYTLTISSLQPEDFATYYCQQGFKYPLTFGGGTKVEIK", "M⁻¹ s⁻¹", 286000),
    ("hu1B2.v103 (antibody, V domains shown, Human IgG1 backbone) VH: EVQLVESGGGLVQPGGSLKLSCAVSGFTFSDFYMEWVRQASGKGLEWVAAQRNKANDFSIVYSASVKDRFTISRDDSKSTLYLQMNSLKTEDTAVYYCSRDGGKWGLDAWGQGTLVTVSS VL: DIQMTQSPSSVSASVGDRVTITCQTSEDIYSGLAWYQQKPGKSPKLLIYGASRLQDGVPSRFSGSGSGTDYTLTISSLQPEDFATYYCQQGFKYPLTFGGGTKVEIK", "M⁻¹ s⁻¹", 265000),
    ("hu1B2.L1H1.DFS (antibody, V domains shown, Human IgG1 backbone; also called hu1B2.v1.DFS) VH: EVQLVESGGGLVQPGGSLKLSCAVSGFTFSDFYMEWIRQASGKGLEWIAASRNKANDFSIVYSASVKDRFTISRDTSKSTLYLQMNSLKTEDTAVYYCSRDSGRWGLDAWGQGTLVTVSS VL: DIQMTQSPSSVSASVGDRVTITCQTSEDIYSGLAWYQQKPGKSPKLLIYGASRLQDGVPSRFSGSGSGTDYTLTISSLQPEDFATYFCQQGFKYPLTFGGGTKVEIK", "M⁻¹ s⁻¹", 226000),
]

Short answer for hu1B2.v102 (antibody, V domains shown, Human IgG1 backbone) VH: EVQLVESGGGLVQPGGSLKLSCAVSGFTFSDFYMEWVRQASGKGLEWVAAQRNKANDFSIVYSASVKDRFTISRDDSKSTLYLQMNSLKTEDTAVYYCSRDGGRLALDAWGQGTLVTVSS VL: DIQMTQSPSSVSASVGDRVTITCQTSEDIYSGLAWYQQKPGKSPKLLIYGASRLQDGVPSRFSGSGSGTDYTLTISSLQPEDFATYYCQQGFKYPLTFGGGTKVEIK : kon was 387000
